- studyTarget: T1, T cell receptor (TCR) Vγ9 (TRGV9) (human, UniProt Q99603 21-122); note: unit not given here
- T1 chain (looked up): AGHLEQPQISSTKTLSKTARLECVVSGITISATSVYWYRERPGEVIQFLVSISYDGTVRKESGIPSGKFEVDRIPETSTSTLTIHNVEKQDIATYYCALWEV
- experimentalProtocol: cell-based or functional assay
endpointName: Granzyme B, Luminex (supernatant)
Reply with the value as a number alone.

// worked examples, Granzyme B, Luminex (supernatant) included
-- ask State the recorded Granzyme B, Luminex (supernatant) for this entry: VG9B36 (antibody, human IgG1, kappa, V domains shown) VH: QVQLVESGGGLVKPGGSLRLSCASSGFTFSSYGMYWVRQAPGKGLEWVSSISTGSSYIYYADSVKGRFTISRDNAKNSLYLQMNSLRAEDTAVYYCARDKGLAVTGYIMDVWGQGTTVTVSS VL: EIVLTQSPSSLSASVGDRVTITCQASQDISNYLNWYQQKPGKAPKLLIYDASNLETGVPSRFSGSGSGTDFTFTISSLQPEDIAIYYCQQYDNLPMYTFGQGTKVEIKR
-- reply 3890

-- ask Try the binder VG9B44 (antibody, human IgG1, kappa, V domains shown) VH: QVQLQQSGPGLVKPSQTLSLTCAISGDSVSSNSAAWNWIRQSPSRGLEWLGRTYYRSKWYNDYPISVKSRISINPDTSKNQFSLQLNSVTPEDTAVYYCARESGSYYTDGFDIWGQGTMVTVSS VL: DIQMTQSPSFLSASVGDRVTITCRASQGISSYLAWYQQKPGKAPKLLIYAASTLQSGVPSRFSGSGSGTEFTLTISSLQPEDFATYYCQEFNSYPYTFGQGTKLEIKR
-- reply 3030

-- ask Next: VG9B162 (antibody, human IgG1, lambda, V domains shown) VH: QVQLVESGAEVTKPGASVKVSCKASGYTFTGDYMHWVRQAPGQGLEWMGWINPNSGYTNYAQKFQGRVTMTRDTSISTAYMELSRLRSDDTAVYYCAREGDAFDVWGQGTMVTVSS VL: QLVLTQSSSASGSPGQSVTISCTGTSSDVGGYNYVSWYQQHPGKAPKLMIYEVSKRPSGVPDRFSGSKSGNTASLTVSGLQAEDEADYYCNSYAGSNNFEVFGGGTKLTVLG
-- reply 481

-- ask Entry to check: VG9B191 (antibody, human IgG1, lambda, V domains shown) VH: EVQLVQSGGGLVKPGGSLRLSCAASGFTFSRYSMNWVRQAPGKGLEGVSSISSSSSYIYYADSVKGRFTISRDNAKNSLYLQMNSLRAEDTAVYYCARDGPTVNWDYYFDLWGRGTLVTVSS VL: QSVLTQPPSVSAAPGQKVTISCSGSSSNIGNNYVSWYQQLPGTAPKLLIYDNNKRPSGIPDRFSGSKSGTSATLGITGLQTGDEADYYCGTWDSSLSTSVVFGGGTKLTVLG
-- reply 3370

Others:
-- ask Requested read-out: Granzyme B, Luminex (supernatant). Entry: VG9B127 (antibody, human IgG1, kappa, V domains shown) VH: QVQLVESGGGLVKPGGSLRLSCTASGFTFGAYTMNWVRQAPGKGLEWVSSISSSSSYIDFAESVKGRFTISRDNAKNSLYLQMISLRAEDTAVYYCARDGDIVSTIRGSFDYWGQGALVTVSS VL: EIVMTQSPLSLPVTPGEPASISCRSSQSLLDSDDGNTYLDWYLQKPGQSPQLLIYTLSYRASGVPDRFSGSGSGTDFTLKISRVEAEDVGIYYCMQRIEFPITFGQGTKVEIKR
-- reply 2450
